Target Or Test System: Neu5Ac(a2-3)Gal(b1-3)GlcNAc(b1-3)Gal(b1-4)GlcNAc
Assay Text: glycan array binding signal (z-score within array); higher = stronger binding
Setup Conditions: glycan notation: IUPAC condensed, linker removed
The full list was thinned out, with the strongest signals kept by preference.
Parameter threshold = -0.3. Response is Criterion met when glycan array binding signal (z-score) meets or exceeds it, else Criterion not met.

Problem: Say whether Tim-4 (Mus musculus), Q6U7R4 (protein) MSKGLLLLWLVTELWWLYLTPAASEDTIIGFLGQPVTLPCHYLSWSQSRNSMCWGKGSCPNSKCNAELLRTDGTRIISRKSTKYTLLGKVQFGEVSLTISNTNRGDSGVYCCRIEVPGWFNDVKKNVRLELRRATTTKKPTTTTRPTTTPYVTTTTPELLPTTVMTTSVLPTTTPPQTLATTAFSTAVTTCPSTTPGSFSQETTKGSAFTTESETLPASNHSQRSMMTISTDIAVLRPTGSNPGILPSTSQLTTQKTTLTTSESLQKTTKSHQINSRQTILIIACCVGFVLMVLLFLAFLLRGKVTGANCLQRHKRPDNTEDSDSVLNDMSHGRDDEDGIFTL shows glycan array binding signal (z-score) of -0.3 or more.
Solution: Criterion not met

Problem: Given the entry NPA (Narcissus pseudonarcissus), C0HM45 (protein) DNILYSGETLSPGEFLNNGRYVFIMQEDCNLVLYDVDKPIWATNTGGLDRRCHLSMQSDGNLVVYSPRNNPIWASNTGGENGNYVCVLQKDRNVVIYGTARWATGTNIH , answer whether its glycan array binding signal (z-score) meets or surpasses -0.3.
Solution: Criterion met

Problem: Tell me whether glycan array binding signal (z-score) is at least -0.3 here: UEA-I (Ulex europaeus), P22972 (protein) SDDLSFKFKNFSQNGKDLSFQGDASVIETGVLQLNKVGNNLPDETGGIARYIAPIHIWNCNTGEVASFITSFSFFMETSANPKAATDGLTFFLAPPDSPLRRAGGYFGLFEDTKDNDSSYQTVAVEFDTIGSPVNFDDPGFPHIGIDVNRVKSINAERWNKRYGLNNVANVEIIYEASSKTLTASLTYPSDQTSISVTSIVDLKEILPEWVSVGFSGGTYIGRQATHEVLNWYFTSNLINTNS
Solution: Criterion met

Problem: Does ArathEULS3 TAP (Arabidopsis thaliana) (protein) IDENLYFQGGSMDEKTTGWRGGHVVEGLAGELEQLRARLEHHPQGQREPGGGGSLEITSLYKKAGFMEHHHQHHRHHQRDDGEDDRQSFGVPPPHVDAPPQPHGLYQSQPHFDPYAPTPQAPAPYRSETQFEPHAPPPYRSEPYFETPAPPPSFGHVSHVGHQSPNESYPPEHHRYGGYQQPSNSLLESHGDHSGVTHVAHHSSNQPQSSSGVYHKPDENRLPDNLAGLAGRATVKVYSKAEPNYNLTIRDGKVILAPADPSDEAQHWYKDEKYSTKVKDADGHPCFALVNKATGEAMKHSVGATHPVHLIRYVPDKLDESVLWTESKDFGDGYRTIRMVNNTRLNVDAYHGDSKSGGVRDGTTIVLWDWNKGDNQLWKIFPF have a reported glycan array binding signal (z-score) of at least -0.3?
Solution: Criterion not met

Problem: API: above_or_equal(metric=glycan array binding signal (z-score), cutoff=-0.3) for item CTLY 1 (Homo sapiens), Q6ZS10 (protein) AITCPEGWLPFEGKCYYFSPSTKSWDEARMFCQENYSHLVIINSFAEHNFVAKAHGSPRVYWLGLNDRAQEGDWRWLDGSPVTLSFWEPEEPNNIHDEDCATMNKGGTWNDLSCYKTTYWICERKGLNDIFEAQKIEWHE
Solution: Criterion met
